This listing pairs molecules with measured IC50.
# assayTarget: p38-α (Homo sapiens, UniProt Q16539)
# Construct: made in house; host or cells: bacteria
# Sequence (Q16539 whole entry): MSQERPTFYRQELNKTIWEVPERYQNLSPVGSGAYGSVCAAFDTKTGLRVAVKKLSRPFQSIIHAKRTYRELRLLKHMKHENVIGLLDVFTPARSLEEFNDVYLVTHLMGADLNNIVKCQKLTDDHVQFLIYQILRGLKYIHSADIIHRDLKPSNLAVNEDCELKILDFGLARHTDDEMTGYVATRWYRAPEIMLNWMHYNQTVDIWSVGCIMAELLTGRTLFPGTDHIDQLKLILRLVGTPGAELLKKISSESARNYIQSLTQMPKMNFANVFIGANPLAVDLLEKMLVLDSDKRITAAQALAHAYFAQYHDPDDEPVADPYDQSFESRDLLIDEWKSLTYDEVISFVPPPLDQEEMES
# testName: Kinase disk assay (32P transfer to peptide), p38
# Format: biochemical
# experimentalParameters: Table S3; […] 100 µM substrate, 11 nM [γ-32P]ATP
resultType: IC50 (nM)

1. CC(C)(C)n1nc(-c2cccc(O)c2)c2c(N)ncnc21 [hydroxy-PP]; 17000
2. CC(C)(C)n1nc(-c2ccccc2)c2c(N)ncnc21 [PP, reference compound]; 4000

* * *

This listing pairs compounds with measured IC50.
# assayTarget: Fyn (Homo sapiens)
# Construct: made in house; host or cells: bacteria
# Sequence (P06241 whole entry, species assumed): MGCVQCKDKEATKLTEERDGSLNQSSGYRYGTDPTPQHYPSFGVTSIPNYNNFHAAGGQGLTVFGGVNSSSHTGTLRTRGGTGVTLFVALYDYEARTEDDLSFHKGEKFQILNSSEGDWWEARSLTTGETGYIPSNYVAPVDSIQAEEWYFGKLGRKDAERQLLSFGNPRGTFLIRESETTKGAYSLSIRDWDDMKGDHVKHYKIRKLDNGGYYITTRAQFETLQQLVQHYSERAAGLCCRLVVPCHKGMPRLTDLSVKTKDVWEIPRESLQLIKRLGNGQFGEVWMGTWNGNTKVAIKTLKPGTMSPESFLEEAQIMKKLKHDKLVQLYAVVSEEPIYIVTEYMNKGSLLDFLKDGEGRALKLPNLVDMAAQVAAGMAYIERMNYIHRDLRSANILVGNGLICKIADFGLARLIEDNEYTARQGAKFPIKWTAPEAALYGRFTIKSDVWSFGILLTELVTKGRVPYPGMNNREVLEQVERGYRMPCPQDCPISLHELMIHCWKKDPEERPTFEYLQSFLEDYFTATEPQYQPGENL
# testName: Kinase disk assay (32P transfer to peptide), Fyn
# Type: biochemical
# experimentalParameters: read-out: IC50 against Fyn (Figure 3)
resultType: IC50 (nM)

1) CC(C)(C)n1nc(-c2cccc(O)c2)c2c(N)ncnc21 [hydroxy-PP]; 5
2) CC(C)(C)n1nc(-c2ccccc2)c2c(N)ncnc21 [PP, reference compound]; 50

* * *

# testName: Solubility limit in the CBR1 assay
# Type: physicochemical
resultType: solubility (µM)

1. CC(C)(C)n1nc(-c2ccccc2)c2c(N)ncnc21 [PP, reference compound]; 200

* * *

# assayTarget: Fyn (Homo sapiens)
# Construct: made in house; host or cells: bacteria
# testName: Kinase disk assay (32P transfer to peptide), Fyn
# Format: biochemical
# experimentalParameters: Table S3; LEEIYGEFKKK 100 µM substrate, 11 nM [γ-32P]ATP; read-out: IC50 (nM) Fyn
resultType: IC50 (nM)

1. CC(C)(C)n1nc(-c2ccccc2)c2c(N)ncnc21 [PP, reference compound]; 110

* * *

# assayTarget: human CBR1 (Homo sapiens, UniProt P16152)
# Sequence (P16152 1-277): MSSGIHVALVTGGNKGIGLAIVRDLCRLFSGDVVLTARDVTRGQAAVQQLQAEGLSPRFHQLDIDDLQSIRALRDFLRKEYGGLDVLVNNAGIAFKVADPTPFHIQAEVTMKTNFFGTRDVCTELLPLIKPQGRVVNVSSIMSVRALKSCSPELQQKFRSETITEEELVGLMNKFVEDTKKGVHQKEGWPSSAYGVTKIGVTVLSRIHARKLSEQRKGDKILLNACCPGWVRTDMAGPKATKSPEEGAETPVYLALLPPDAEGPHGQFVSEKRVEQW
# testName: CBR1 assay (NADPH-dependent reduction of menadione, spectrophotometric)
# experimentalParameters: IC50 against CBR1, 200 μM NADPH, 200 μM menadione, pH 6.8, 25 °C
pIC50: −log10 of the molar value.
resultType: pIC50

1. CNc1ncnc2c1c(-c1cccc(O)c1)cn2C(C)C [hydroxy-PP-Me]; 6.12
2. CC(C)(C)n1nc(-c2cccc(O)c2)c2c(N)ncnc21 [hydroxy-PP]; 6.10

* * *

# assayTarget: human CBR1 (Homo sapiens, UniProt P16152)
# Sequence (P16152 1-277): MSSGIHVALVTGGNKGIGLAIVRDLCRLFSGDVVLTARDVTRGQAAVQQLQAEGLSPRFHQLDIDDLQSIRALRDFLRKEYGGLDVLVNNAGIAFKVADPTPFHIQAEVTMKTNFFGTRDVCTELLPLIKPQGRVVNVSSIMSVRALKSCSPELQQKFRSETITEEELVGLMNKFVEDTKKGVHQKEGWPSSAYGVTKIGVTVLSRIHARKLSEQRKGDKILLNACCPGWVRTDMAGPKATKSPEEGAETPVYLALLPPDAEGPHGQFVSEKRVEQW
# testName: CBR1 assay (NADPH-dependent reduction of menadione, spectrophotometric)
# experimentalParameters: IC50 against CBR1, re-screen of the screening collection, data not shown
pIC50: −log10 of the molar value.
resultType: pIC50

1. CC(C)(C)n1nc(-c2cccc(O)c2)c2c(N)ncnc21 [hydroxy-PP]; > 6.00

Source: paper PMC1073692
